ASSAY METHOD TEXT: ATG_EGR_CIS: Attagene CIS-FACTORIAL HepG2 Assay for human Early Growth Response 1 (EGR1) (AID 2282938)
RECORDED CONDITIONS: HepG2 Attagene CIS-FACTORIAL EGR reporter mRNA; actives raise or lower the signal
The source made the active and inactive calls. The calls were made as follows: active = hit-call score of the fitted dose curve at least 0.9, where 1 is the maximum; inactive = score below 0.9.
Possible outcomes: yes (1) = active, no (0) = inactive

molecule=CC(C)(O)c1cnn2c(-c3ccc(F)c(-c4c(F)cccc4C#N)c3)cnc2n1 label_class="yes (1)"
molecule=Clc1ccc(C(c2ccc(Cl)cc2)C(Cl)Cl)cc1 label_class="yes (1)"
molecule=COC(=O)Nc1nc2ccccc2[nH]1 label_class="no (0)"
molecule=Nc1cc(Cl)cc(C(=O)O)c1Cl label_class="no (0)"
molecule=[Cl-].[Cl-].[Hg+2] label_class="no (0)"
molecule=Nc1ccc(Cl)cc1N label_class="yes (1)"
molecule=CCC[CH2][Sn]([Cl])([CH2]CCC)[CH2]CCC label_class="yes (1)"
molecule=[O-][Cl+]O label_class="no (0)"
molecule=Cc1ccc(N)c(N)c1 label_class="yes (1)"
molecule=CNC(=O)Oc1cccc2c1OC(C)(C)C2 label_class="no (0)"
molecule=OCCCl label_class="no (0)"
molecule=c1ccc2c(c1)oc1ccccc12 label_class="no (0)"
molecule=Cc1ccc([N+](=O)[O-])cc1 label_class="no (0)"
molecule=Nc1ccc(N=Nc2ccccc2)cc1 label_class="yes (1)"
molecule="c1ccc(C2CO2)cc1 (stereo unspecified)" label_class="no (0)"
molecule="CC(O)CCO (stereo unspecified)" label_class="no (0)"

----------
Read-out: UDP glucuronosyltransferase (UGT1A1), UGT1A1 (gene 54658)
ASSAY METHOD TEXT: LTEA_HepaRG_UGT1A1: Life Technologies and Expression Analysis (LTEA) Assay for UDP glucuronosyltransferase (UGT1A1) using HepaRG (AID 2283538)
RECORDED CONDITIONS: mRNA level, 48 h; actives raise or lower the signal
Calls of active or inactive are those of the source. Rule for the calls: active = hit-call score of the fitted dose curve at least 0.9, where 1 is the maximum; inactive = score below 0.9.
Possible outcomes: Yes (active), No (inactive)

compound=N#CC(Br)Br label_class=No
compound=Nc1ccc(N=Nc2ccccc2)cc1 label_class=Yes
compound=[O-][Cl+]O label_class=No
compound=O=C(N[C@H](c1ccccc1)[C@@H]1CN2CCC1CC2)c1c(Cl)ccc(C(F)(F)F)c1Cl label_class=Yes
compound="c1ccc(C2CO2)cc1 (stereo not drawn)" label_class=No
compound=Nc1ccc(Oc2ccc(N)cc2)cc1 label_class=Yes
compound="CCCCC(CC)COC(=O)c1ccc(C(=O)OCC(CC)CCCC)c(C(=O)OCC(CC)CCCC)c1 (stereo not drawn)" label_class=No
compound=CC(C)(O)c1cnn2c(-c3ccc(F)c(-c4c(F)cccc4C#N)c3)cnc2n1 label_class=Yes
compound=Oc1ccc2ccc3cccc4ccc1c2c34 label_class=No
compound=CCN(CC)CCO label_class=No
compound=ClC1=C(Cl)[C@]2(Cl)[C@H]3[C@H]([C@@H]4C=C[C@H]3C4)[C@@]1(Cl)C2(Cl)Cl label_class=Yes
compound="O=C(O)C1C2CCC(O2)C1C(=O)O (stereo not drawn)" label_class=Yes
compound=CCOC(=O)[C@]1(c2ccccc2)Oc2ccccc2[C@@H]1N label_class=Yes
compound=O=C(Nc1ccccc1)c1ccccc1I label_class=Yes
compound=OCCCBr label_class=No
compound=c1ccc(N=Nc2ccccc2)cc1 label_class=No
compound=CN(C)[C@@H]1C(=O)C(C(N)=O)=C(O)[C@@]2(O)C(=O)C3=C(O)c4c(O)cccc4[C@@](C)(O)[C@H]3C[C@@H]12 label_class=No
compound=CCCCCOC(=O)c1ccccc1C(=O)OCCCCC label_class=No
